Origin of values: BindingDB's records for doi:10.1021/acschembio.5b00514

# assay system: Rhomboid domain-containing protein (Aquifex aeolicus (strain VF5))
# Sequence (O67346 whole entry, the tested form may be a part): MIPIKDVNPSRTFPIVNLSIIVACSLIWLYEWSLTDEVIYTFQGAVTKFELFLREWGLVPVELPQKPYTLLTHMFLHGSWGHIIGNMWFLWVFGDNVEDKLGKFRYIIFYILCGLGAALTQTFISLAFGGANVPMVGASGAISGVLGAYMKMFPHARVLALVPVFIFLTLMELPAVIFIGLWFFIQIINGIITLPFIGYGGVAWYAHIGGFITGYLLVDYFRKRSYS
# measurement protocol: Activity-based Protein Profiling (ABPP)
# protocol conditions: pH 7.4; 37 °C
measured endpoint: IC50 (µM)

• O=c1oc(Cl)c(Cl)c2ccccc12 = 1.1
• O=c1oc(OCCCCCc2ccccc2)c(Cl)c2ccc([N+](=O)[O-])cc12 = 1.7

====

# assay system: Rhomboid-related protein 3 (Mus musculus)
# Sequence (P58873 whole entry): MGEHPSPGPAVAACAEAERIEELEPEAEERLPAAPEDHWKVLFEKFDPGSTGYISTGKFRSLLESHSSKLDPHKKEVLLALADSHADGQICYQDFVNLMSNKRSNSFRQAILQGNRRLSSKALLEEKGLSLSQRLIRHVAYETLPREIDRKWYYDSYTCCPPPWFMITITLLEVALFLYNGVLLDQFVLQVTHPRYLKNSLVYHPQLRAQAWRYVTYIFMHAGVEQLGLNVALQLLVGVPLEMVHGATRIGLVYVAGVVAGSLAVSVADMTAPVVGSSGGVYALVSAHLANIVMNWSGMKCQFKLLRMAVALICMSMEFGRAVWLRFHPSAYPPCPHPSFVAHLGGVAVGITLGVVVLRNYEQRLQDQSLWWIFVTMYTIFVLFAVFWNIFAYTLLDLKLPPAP
pIC50: −log10 of the molar value.
measured endpoint: pIC50

* O=c1oc(OCCCCCc2ccccc2)c(Cl)c2ccc([N+](=O)[O-])cc12 | 4.62
* O=c1oc(Cl)c(Cl)c2ccccc12 | 4.15

====

# assay system: Rhomboid domain-containing protein (Pyrococcus horikoshii (strain ATCC 700860 / DSM 12428 / JCM 9974 / NBRC 100139 / OT-3))
# Sequence (O59166 whole entry, the tested form may be a part): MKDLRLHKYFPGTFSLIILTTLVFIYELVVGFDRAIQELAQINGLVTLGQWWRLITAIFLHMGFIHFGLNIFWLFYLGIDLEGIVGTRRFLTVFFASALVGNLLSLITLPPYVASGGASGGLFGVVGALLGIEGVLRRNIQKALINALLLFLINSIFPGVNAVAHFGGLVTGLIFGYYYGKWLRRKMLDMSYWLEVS
# measurement protocol: Activity-based Protein Profiling (ABPP)
# protocol conditions: pH 7.4; 37 °C
Measured IC50 by item
measured endpoint: IC50

• O=c1oc(OCCCCCc2ccccc2)c(Cl)c2ccc([N+](=O)[O-])cc12 = 25 µM
• O=c1oc(Cl)c(Cl)c2ccccc12 = 16 µM

====

# assay system: Rhomboid protease GluP [F193S,L370F,L379S,R499W] (Bacillus subtilis (strain 168), UniProt P54493, F193S/L370F/L379S/R499W)
# Sequence (P54493 whole entry F192S/L370F/L379S/R499W): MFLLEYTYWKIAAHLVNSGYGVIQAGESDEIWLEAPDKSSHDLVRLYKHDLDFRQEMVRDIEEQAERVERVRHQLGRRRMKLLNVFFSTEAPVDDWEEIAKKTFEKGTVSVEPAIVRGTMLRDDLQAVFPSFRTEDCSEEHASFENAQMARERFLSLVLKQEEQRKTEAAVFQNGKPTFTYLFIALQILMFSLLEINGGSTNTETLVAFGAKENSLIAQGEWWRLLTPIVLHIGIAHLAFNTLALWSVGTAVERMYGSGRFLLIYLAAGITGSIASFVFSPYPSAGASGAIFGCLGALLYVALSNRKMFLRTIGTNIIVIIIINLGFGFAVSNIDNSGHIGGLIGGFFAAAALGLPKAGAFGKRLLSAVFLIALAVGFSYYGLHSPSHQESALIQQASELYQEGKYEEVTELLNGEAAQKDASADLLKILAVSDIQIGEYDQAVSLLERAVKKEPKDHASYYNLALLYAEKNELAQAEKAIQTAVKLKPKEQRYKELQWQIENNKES
# measurement protocol: Activity-based Protein Profiling (ABPP)
# protocol conditions: pH 7.4; 37 °C
# Description: We selected several inhibitor structures and determined their apparent IC50 by competitive ABPP.
Measured IC50 by item
measured endpoint: IC50 (µM)

• O=c1oc(Cl)c(Cl)c2ccccc12 = 4.1
• O=c1oc(OCCCCCc2ccccc2)c(Cl)c2ccc([N+](=O)[O-])cc12 = 25

====

Measured IC50 by item
# assay system: Rhomboid protease GlpG (Escherichia coli (strain K12), UniProt P09391)
# Sequence (P09391 whole entry): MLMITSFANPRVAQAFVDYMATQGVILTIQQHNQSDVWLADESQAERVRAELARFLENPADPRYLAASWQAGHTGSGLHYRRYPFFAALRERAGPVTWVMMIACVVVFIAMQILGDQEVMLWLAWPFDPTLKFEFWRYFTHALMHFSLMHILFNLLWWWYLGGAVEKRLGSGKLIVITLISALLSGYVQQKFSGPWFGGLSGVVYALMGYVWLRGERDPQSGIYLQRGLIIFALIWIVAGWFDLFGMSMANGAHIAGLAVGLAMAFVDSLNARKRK
# measurement protocol: Activity-based Protein Profiling (ABPP)
# protocol conditions: pH 7.4; 37 °C
measured endpoint: IC50 (µM)

- C#CCCC[C@@H]1OC(=O)[C@H]1CCCC: 44
- O=c1oc(Cl)c(Cl)c2ccccc12: 19

====

# assay system: GlpG protein (Vibrio cholerae)
# Sequence (Q9KVP2 whole entry): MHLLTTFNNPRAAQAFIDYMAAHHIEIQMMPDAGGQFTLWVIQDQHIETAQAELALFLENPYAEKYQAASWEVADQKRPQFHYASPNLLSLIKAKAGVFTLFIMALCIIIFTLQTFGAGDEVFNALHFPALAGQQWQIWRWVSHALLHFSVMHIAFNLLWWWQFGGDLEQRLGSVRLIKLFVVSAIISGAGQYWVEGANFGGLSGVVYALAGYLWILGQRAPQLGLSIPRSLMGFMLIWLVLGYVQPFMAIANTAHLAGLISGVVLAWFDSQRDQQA
pIC50: −log10 of the molar value.
measured endpoint: pIC50

- O=c1oc(Cl)c(Cl)c2ccccc12: 4.57
- O=c1oc(OCCCCCc2ccccc2)c(Cl)c2ccc([N+](=O)[O-])cc12: 4.12

====

# assay system: Rhomboid protease GlpG (Haemophilus influenzae, UniProt A0A2R3FW87)
# Sequence (A0A2R3FW87 whole entry): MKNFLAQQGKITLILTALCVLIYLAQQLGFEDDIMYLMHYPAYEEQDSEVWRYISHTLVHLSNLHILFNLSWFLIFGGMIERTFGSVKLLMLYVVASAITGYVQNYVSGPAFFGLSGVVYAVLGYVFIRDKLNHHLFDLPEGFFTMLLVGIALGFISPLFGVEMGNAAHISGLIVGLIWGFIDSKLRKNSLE
# measurement protocol: Activity-based Protein Profiling (ABPP)
# protocol conditions: pH 7.4; 37 °C
pIC50: −log10 of the molar value.
measured endpoint: pIC50

• O=c1oc(OCCCCCc2ccccc2)c(Cl)c2ccc([N+](=O)[O-])cc12 = 5.34
• O=c1oc(Cl)c(Cl)c2ccccc12 = 6.18
